B1: library; numbered along this chain (parent)
chain: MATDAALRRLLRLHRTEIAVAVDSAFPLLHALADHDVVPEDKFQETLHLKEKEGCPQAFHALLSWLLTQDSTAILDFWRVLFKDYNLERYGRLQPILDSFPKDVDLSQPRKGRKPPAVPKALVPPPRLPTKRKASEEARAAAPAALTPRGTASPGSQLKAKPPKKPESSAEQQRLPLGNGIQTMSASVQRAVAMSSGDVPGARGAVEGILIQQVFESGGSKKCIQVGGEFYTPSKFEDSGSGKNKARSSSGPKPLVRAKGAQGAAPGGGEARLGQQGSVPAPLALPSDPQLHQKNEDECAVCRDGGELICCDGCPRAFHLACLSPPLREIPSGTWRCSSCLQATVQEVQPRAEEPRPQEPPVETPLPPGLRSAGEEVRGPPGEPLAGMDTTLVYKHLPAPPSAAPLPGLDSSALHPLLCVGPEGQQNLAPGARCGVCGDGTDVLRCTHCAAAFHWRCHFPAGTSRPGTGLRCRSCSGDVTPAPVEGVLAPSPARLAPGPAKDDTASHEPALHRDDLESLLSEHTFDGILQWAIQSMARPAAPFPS

# Variants of: B1
# PROTOCOL DETAILS: AIRE transcriptional activation functional score (insulin promoter-GFP; nonsense median 0, synonymous median 1) (normalised score); higher = higher AIRE activity (more reporter activation)
# TEST CONTEXT: with insulin promoter-GFP reporter in HEK293
READOUT KIND: AIRE transcriptional activation functional score

MUTATION ANNOTATION: P266W
REPORTED RESULT: 0.984
--
MUTATION ANNOTATION: P539C
REPORTED RESULT: 0.233

Lab note: measured AIRE transcriptional activation functional score of A6G was 1.2

Lab note: measured AIRE transcriptional activation functional score of P125Q was 0.768

Lab note: measured AIRE transcriptional activation functional score of T463A was 0.614
